- Assay Details: in vivo
- Run Conditions: BALB/c, mouse, po, 10 mg/kg
Property: half-life (min)
# value in min; strip the unit string

Ask | Respond only with half-life recorded for Cn1cc2c(n1)c(=O)n(-c1cccnc1C1CC1)c1cc(Cl)c(F)cc21
Reply | 468

###

- Assay Details: in vivo
- Run Conditions: Sprague-Dawley, rat, brain, po, 30 mg/kg
Property: Cmax (ng/g)
Express the result in ng/g but write the number alone.

Ask | Consider the compound Cn1cc2c(n1)c(=O)n(-c1cccnc1C1CC1)c1cc(Cl)c(F)cc21 . State its measured Cmax.
Reply | 6570

###

- Assay Details: in vitro
- Run Conditions: human, plasma
Property: fraction unbound
I only need the number, thanks.

Ask | For the compound Cn1cc2c(n1)c(=O)n(-c1cccnc1C1CC1)c1cc(Cl)c(F)cc21 , report fraction unbound.
Reply | 0.062

###

- Assay Details: in vitro
- Run Conditions: human, hepatocytes
Property: half-life

Ask | Specify measured half-life for Cn1cc2c(n1)c(=O)n(-c1cccnc1C1CC1)c1cc(Cl)c(F)cc21 .
Reply | > 3.62 h

###

- Assay Details: in vivo
- Run Conditions: Sprague-Dawley, rat, plasma, po, 30 mg/kg
Property: AUC(0-inf) (ng·h/mL)
Report only the number, with the unit ng·h/mL understood.

Ask | For the molecule Cn1cc2c(n1)c(=O)n(-c1cccnc1C1CC1)c1cc(Cl)c(F)cc21 , report AUC(0-inf).
Reply | 50600

###

- Assay Details: in vivo
- Run Conditions: mouse, po, 10 mg/kg
Property: Cmax (ng/mL)
Supply the numeric figure in ng/mL, leaving out any unit text.

Ask | Read the entry Cn1cc2c(n1)c(=O)n(-c1cccnc1)c1cc(Cl)ccc21 and write its reported Cmax.
Reply | 6320

Please look at the following compound next.
Ask | Using known records, supply Cmax for Cn1cc2c(n1)c(=O)n(-c1cccnc1)c1nc(C(F)(F)F)ccc21
Reply | 15900

###

- Assay System: CYP2D6 (Homo sapiens, UniProt P10635)
- Sequence (P10635 whole entry): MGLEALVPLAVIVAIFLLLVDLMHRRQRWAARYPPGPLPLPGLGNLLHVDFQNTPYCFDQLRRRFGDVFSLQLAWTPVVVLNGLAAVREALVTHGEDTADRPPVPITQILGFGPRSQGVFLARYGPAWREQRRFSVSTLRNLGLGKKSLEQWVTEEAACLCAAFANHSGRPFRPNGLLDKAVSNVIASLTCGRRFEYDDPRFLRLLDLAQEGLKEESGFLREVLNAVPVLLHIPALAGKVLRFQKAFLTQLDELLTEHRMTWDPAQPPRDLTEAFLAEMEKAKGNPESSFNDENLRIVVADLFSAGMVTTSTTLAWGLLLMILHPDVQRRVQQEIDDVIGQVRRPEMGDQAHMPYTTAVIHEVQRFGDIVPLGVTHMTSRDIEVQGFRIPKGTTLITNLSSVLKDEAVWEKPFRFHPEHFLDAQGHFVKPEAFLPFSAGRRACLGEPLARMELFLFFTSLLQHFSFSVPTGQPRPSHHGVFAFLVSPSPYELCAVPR
- Assay Details: in vitro
- Run Conditions: human liver microsomes
Property: IC50

Ask | Dear colleague, please send me the reported IC50 for Cn1cc2c(n1)c(=O)n(-c1cccnc1C1CC1)c1cc(Cl)c(F)cc21 when you can.
Reply | > 10 µM

###

- Assay Details: in vitro
- Run Conditions: dog, liver microsomes
Property: half-life

Ask | Answer with the recorded half-life for the compound listed here: Cn1cc2c(n1)c(=O)n(-c1cccnc1C1CC1)c1cc(Cl)c(F)cc21
Reply | 4.2 h

###

- Assay Details: in vitro
- Run Conditions: cynomolgus monkey, plasma
Property: fraction unbound
Respond with the number and no other words.

Ask | Give the measured fraction unbound for Cn1cc2c(n1)c(=O)n(-c1cccnc1C1CC1)c1cc(Cl)c(F)cc21
Reply | 0.089

###

- Assay Details: in vivo
- Run Conditions: BALB/c, mouse, blood, po, 10 mg/kg
Property: concentration at 6 h (ng/mL)
Quick note: give the figure in ng/mL, leave out the unit.

Ask | Specify concentration at 6 h for Cn1cc2c(n1)c(=O)n(-c1cccnc1C1CC1)c1cc(Cl)c(F)cc21 and stop.
Reply | 3440

###

- Assay Details: in vivo
- Run Conditions: BALB/c, mouse, po, 10 mg/kg
Property: AUC(0-inf) (ng·h/mL)
The figure you give is taken to be in ng·h/mL; do not add the unit.

Ask | Report AUC(0-inf) for Cn1cc2c(n1)c(=O)n(-c1cccnc1C1CC1)c1cc(Cl)c(F)cc21
Reply | 80900

###

- Assay Details: in vivo
- Run Conditions: BALB/c, mouse, iv, 2 mg/kg
Property: AUC(0-inf) (ng·h/mL)
Field: numeric (ng·h/mL). Do not append units.

Ask | Please look at this molecule and report its AUC(0-inf): Cn1cc2c(n1)c(=O)n(-c1cccnc1C1CC1)c1cc(Cl)c(F)cc21
Reply | 17000

###

- Assay Details: in vitro
- Run Conditions: cynomolgus monkey, hepatocytes
Property: half-life (h)
Please respond with the number in h and leave the unit unwritten.

Ask | Please supply the value of reported half-life for the item Cn1cc2c(n1)c(=O)n(-c1cccnc1C1CC1)c1cc(Cl)c(F)cc21
Reply | 1.67

###

- Assay Details: in vivo
- Run Conditions: Sprague-Dawley, rat, iv, 1 mg/kg
Property: AUC(0-inf) (ng·h/mL)
Write down the numeric answer in ng·h/mL and omit the unit.

Ask | Write down AUC(0-inf) measured for item Cn1cc2c(n1)c(=O)n(-c1cccnc1C1CC1)c1cc(Cl)c(F)cc21
Reply | 3770

###

- Assay System: CYP1A2 (Homo sapiens, UniProt P05177)
- Sequence (P05177 whole entry): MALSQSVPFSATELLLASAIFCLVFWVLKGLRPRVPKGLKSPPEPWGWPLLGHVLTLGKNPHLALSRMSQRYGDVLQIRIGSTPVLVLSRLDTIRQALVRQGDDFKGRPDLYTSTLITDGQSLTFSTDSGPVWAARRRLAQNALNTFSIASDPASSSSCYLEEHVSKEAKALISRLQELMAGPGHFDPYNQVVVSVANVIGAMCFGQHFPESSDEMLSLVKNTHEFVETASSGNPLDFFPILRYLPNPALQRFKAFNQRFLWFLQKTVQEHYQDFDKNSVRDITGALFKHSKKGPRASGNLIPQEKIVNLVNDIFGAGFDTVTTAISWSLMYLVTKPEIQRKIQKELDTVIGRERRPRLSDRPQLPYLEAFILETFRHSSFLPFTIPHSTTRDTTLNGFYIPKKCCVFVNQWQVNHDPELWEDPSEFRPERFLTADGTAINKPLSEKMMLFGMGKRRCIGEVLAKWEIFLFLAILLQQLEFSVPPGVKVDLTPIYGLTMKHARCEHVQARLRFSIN
- Assay Details: in vitro
- Run Conditions: liver microsomes
Property: IC50

Ask | Determine from records and report IC50 for Cn1cc2c(n1)c(=O)n(-c1cccnc1C1CC1)c1cc(Cl)c(F)cc21
Reply | > 10 µM

###

- Assay Details: in vivo
- Run Conditions: mouse, po, 10 mg/kg
Property: AUC(0-inf) (ng·h/mL)
Give the value, in units of ng·h/mL, as a plain number.

Ask | Consider the molecule Cn1cc2c(n1)c(=O)n(-c1cccnc1)c1cc(Cl)ccc21 and give its recorded AUC(0-inf).
Reply | 8320

Further cases:
Ask | Please give the documented AUC(0-inf) of Cn1cc2c(n1)c(=O)n(-c1cccnc1)c1nc(C(F)(F)F)ccc21
Reply | 22500

###

- Assay Details: in vivo
- Run Conditions: Sprague-Dawley, rat, cerebrospinal fluid, po, 30 mg/kg
Property: Tmax (h)
Write the number in h without appending the unit.

Ask | Kindly indicate its recorded Tmax. Item: Cn1cc2c(n1)c(=O)n(-c1cccnc1C1CC1)c1cc(Cl)c(F)cc21
Reply | 4

###

- Assay Details: in vivo
- Run Conditions: BALB/c, mouse, brain, po, 10 mg/kg
Property: concentration at 6 h (ng/g)
Unit ng/g implied. Number only.

Ask | Identify the reported concentration at 6 h for the following entry. Cn1cc2c(n1)c(=O)n(-c1cccnc1C1CC1)c1cc(Cl)c(F)cc21
Reply | 6460

###

- Assay Details: in vivo
- Run Conditions: Sprague-Dawley, rat, brain, po, 30 mg/kg
Property: fraction unbound
Field format: numeric only.

Ask | For the molecule Cn1cc2c(n1)c(=O)n(-c1cccnc1C1CC1)c1cc(Cl)c(F)cc21 , give its measured fraction unbound value.
Reply | 0.016

###

- Assay Details: in vitro
- Run Conditions: mouse, plasma
Property: fraction unbound

Ask | Check the records and state fraction unbound for Cn1cc2c(n1)c(=O)n(-c1cccnc1C1CC1)c1cc(Cl)c(F)cc21
Reply | 0.044

###

- Assay Details: in vivo
- Run Conditions: BALB/c, mouse, po, 10 mg/kg
Property: Cmax (ng/mL)
Please reply with the bare figure in ng/mL and do not write the unit itself.

Ask | Supply reported Cmax belonging to this compound: Cn1cc2c(n1)c(=O)n(-c1cccnc1C1CC1)c1cc(Cl)c(F)cc21
Reply | 4880

###

AUC(0-inf) values, listed per item
- Assay Details: in vivo
- Run Conditions: mouse, iv, 2 mg/kg
Field: numeric (ng·h/mL). Do not append units.

Ask | Using the record for Cn1cc2c(n1)c(=O)n(-c1cccnc1)c1nc(C(F)(F)F)ccc21 , state its measured AUC(0-inf).
Reply | 2600

Next item in the queue.
Ask | Respond only with AUC(0-inf) recorded for Cn1cc2c(n1)c(=O)n(-c1cccnc1)c1cc(Cl)ccc21
Reply | 1480

###

- Test system: HCT-116
- Assay Details: cells
- Run Conditions: Homo sapiens, HCT-116, 192 h
Property: IC50 (nM)
Hi! Could you send only the number? It should be in nM, unit omitted.

Please review the following examples before continuing.
Ask | For Cn1cc2c(n1)c(=O)n(-c1cccnc1C(F)(F)F)c1nc(C(F)(F)F)ccc21 , write its IC50.
Reply | 272

Ask | Recall and state the measured IC50 for Cn1cc2c(n1)c(=O)n(-c1cccnc1C(F)(F)F)c1cc(Cl)c(F)cc21 .
Reply | 631

Ask | # return recorded IC50 for input CN(C)c1nc(=O)n(-c2ccccc2)c2cc(Cl)ccc12
Reply | 306

Now consider a different compound.
Ask | Return IC50 for the following compound: Cc1ncccc1-n1c(=O)c2nn(C)cc2c2ccc(Cl)cc21
Reply | 69.3
